- TARGET: T1, hK1 (human tissue kallikrein 1), recombinant (human, UniProt P06870 25-262)
- T1 construct: Expressed in P. pastoris from KLK1 cDNA and purified; enzymatically active; also called KLK1; Recombinant (Pichia) Kallikrein
- PROTOCOL: SPR
READOUT_KIND: Kd (nM)

INSERT INTO results (binder, readout_value) VALUES
  ('M0112-D07 (Fab, V domains shown) VH: EVQLLESGGGLVQPGGSLRLSCAASGFTFSFYSMSWVRQAPGKGLEWVSRIRPSGGRTDYADSVKGRFTISRDNSKNTLYLQMNSLRAEDTAVYYCARDRLYYYGSGSYYYGAFDIWGQGTMVTVSS VL: DIQMTQSPSSLSASVGDRVTITCRASQTIRTYLNWYQQKPGIAPKFLIYDASNLQTGVPSRFSGSGSGTHFTLTISSLQPEDFGTYYCQQSYGGPPTFGRGTKIEIKR', 5.81),
  ('M0115-F04 (Fab, V domains shown) VH: EVQLLESGGGLVQPGGSLRLSCAASGFTFSNYLMGWVRQAPGKGLEWVSSIGPSGGYTKYADSVKGRFTISRDNSKNTLYLQMNSLRAEDTAVYYCARGTGTTFFWGQGTLVTVSS VL: AQSALTQPPSVSVSPGQTVSITCSGDDLGGRHVSWFQQLSGQSPVLVIYQDDKRPSGIPERFSGSNSGNTATLTISGTQSVDEGDYYCLAWHNYKYVFGSGTTVTVLR', 41.6),
  ('M0102-G12 (Fab, V domains shown) VH: EVQLLESGGGLVQPGGSLRLSCAASGFTFSKYKMVWVRQAPGKGLEWVSSIYPSGGITAYADSVKGRFTISRDNSKNTLYLQMNSLRAEDTAMYYCAKDITPGGGSGFRLPKNYYYYGMDVWGQGTTVTVSS VL: AQSELTQPPSASGTPGQRVTISCSGTLSNIGTNIVSWFQQLPGTAPKLLIYNDHRRPSGVPDRFSGSKSATSASLAISGLQSEDEADYYCAAWDDSLNGVVFGGGTKLTVLS', 5.28);
